system: SW-620 colon; assay: NCI-60 one-dose screen, 48 h (100 = growth as untreated, 0 = no growth, -100 = all killed); details: 10 µM unless noted
The panel holds about 83,000 compounds, 20% with a hit somewhere; the sample as a whole holds those more often.
Short version: growth at least 70% is Satisfied, less is Not satisfied.

1) NCCc1ccc(OCc2ccccc2)c(OCc2ccccc2)c1 | Satisfied
2) CCC(=O)OC1CCn2c1nc1c2C(=O)C(C)=C(N2CC2)C1=O (stereo not given) | Not satisfied
3) C[C@]12CC[C@H](O)CC1=CC[C@@H]1[C@@H]2CC[C@]2(C)C(=O)CC[C@@H]12 | Satisfied
4) Cc1ccc(C(=O)OC(C(=O)O)C(OC(=O)c2ccc(C)cc2)C(=O)O)cc1 (stereo not given) (tested in a mixture with another compound) | Not satisfied

---

tested on: UACC-62 melanoma; assay: NCI-60 one-dose screen, 48 h (100 = growth as untreated, 0 = no growth, -100 = all killed); conditions: 10 µM
The panel holds about 83,000 compounds, 20% with a hit somewhere; the sample as a whole holds those more often.
Observation Type: growth (%)

1. O=C1c2ccccc2C(=O)C(Cl)C1Cl (centres undefined) | 70.9
2. Oc1cc[c]([Hg][Cl])cc1 | 92.1
3. CCC(=O)OC1CCn2c1nc1c2C(=O)C(C)=C(N2CC2)C1=O (centres undefined) | -67.8
4. CC[C@@]1(O)C[C@H](OC2CC(N(C)C)C(O)C(C)O2)c2c(O)c3c(c(O)c2[C@H]1OC1CC(N(C)C)C(O)C(C)O1)C(=O)c1cccc(O)c1C3=O (some centres undefined) | -63.2

---

System: NCI-H226 lung
Test: NCI-60 one-dose screen, 48 h (100 = growth as untreated, 0 = no growth, -100 = all killed)
Details: 10 µM unless noted
Procedure: Growth inhibition of the NCI-H226 human Non-Small Cell Lung tumor cell line is measured as a screen for anti-cancer activity. Cells are grown in 96 well plates and exposed to the test compound for 48 hours. Compounds are tested at a single concentration, which is 10^-5 M for most compounds. The reported endpoint is percent growth (GI% or GIPRCNT), where numbers from 0 - 100% represent growth inhibition, and numbers from -100% - 0 represent cell death. […]
The panel holds about 83,000 compounds, 20% with a hit somewhere; the sample as a whole holds those more often.
Observation Type: growth (%)

1) Cc1cc(N=Nc2ccccc2C)ccc1N | 71.1
2) Oc1cc[c]([Hg][Cl])cc1 | 113
3) CC[C@](O)(C(=O)O)c1cc2n(c(=O)c1CO)Cc1cc3ccccc3nc1-2 | -27.8
4) O=C1c2ccccc2C(=O)C(Cl)C1Cl (stereo not given) | -74.2
5) CC[C@@]1(O)C[C@H](OC2CC(N(C)C)C(OC3CC(O)C(OC4CCC(=O)C(C)O4)C(C)O3)C(C)O2)c2c(cc3c(c2O)C(=O)c2c(O)ccc(O)c2C3=O)[C@H]1C(=O)OC (stereo not given in full) | -55.7

---

test system: IGROV1 ovarian; experiment: NCI-60 one-dose screen, 48 h (100 = growth as untreated, 0 = no growth, -100 = all killed); conditions: 10 µM unless noted
The panel holds about 83,000 compounds, 20% with a hit somewhere; the sample as a whole holds those more often.
growth for assorted compounds
Observation Type: growth (%)

1. CN1CCN(c2ccc([N+](=O)[O-])c3no[n+]([O-])c23)CC1 | -71.5
2. CCOC(=O)C(NC(=O)C(Cc1ccc(N(CCCl)CCCl)cc1)NC(C)=O)C(C)C (centres undefined) | 79.3
3. CCC(=O)OC1CCn2c1nc1c2C(=O)C(C)=C(N2CC2)C1=O (centres undefined) | -6.18
4. CCCCCCCCCCCC1CCCC(C)N1 (centres undefined) | -40.3

Hello, the source for this data is PubChem BioAssay (NCI), in case you need it.
